B1: Serine/threonine-protein kinase A-Raf, residues 21 to 89; numbered along this chain, P10398 (parent)
chain: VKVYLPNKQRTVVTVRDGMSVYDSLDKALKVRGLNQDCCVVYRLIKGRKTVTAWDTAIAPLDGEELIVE

Variants of: B1
Experiment: abundance fitness (aPCA) (normalised: wild type 0, dead -1); higher = more abundant; growth selection in yeast, the domain comes from the species named
Conditions: Homo sapiens
Use label 1 when the recorded abundance fitness is no lower than -0.3; use label 0 when it is lower.

Say whether Q9E shows abundance fitness of -0.3 or more.
label 1

Is the recorded value of abundance fitness equal to or greater than -0.3 for this variant? N7I
label 0

Quick check: does A59T have abundance fitness greater than or equal to -0.3?
label 1

Could you tell me if the measured abundance fitness of Q9K reaches -0.3 or more?
label 1

Determine whether measured abundance fitness meets or exceeds -0.3 for V41G
label 0

Confirm if abundance fitness reported for the variant R16M is -0.3 or above.
label 1

Entry K46P : is its abundance fitness no less than -0.3?
label 0

Determine whether measured abundance fitness meets or exceeds -0.3 for V21A
label 1

Is abundance fitness at least -0.3? Consider K8E
label 1

Reported abundance fitness reaches at least -0.3 for D26L ?
label 1

Say whether D62K shows abundance fitness of -0.3 or more.
label 1

Check the entry S24Q : does abundance fitness equal or exceed -0.3?
label 0

Is reported abundance fitness greater than or equal to -0.3 here: G33A
label 0

Dear colleague, could you confirm whether V13K has abundance fitness at or above -0.3?
label 0

I'd appreciate it if you could say whether K49Q has abundance fitness at least equal to -0.3.
label 0

Check the entry N7V : does abundance fitness equal or exceed -0.3?
label 0

Threshold query (abundance fitness >= -0.3) on A28G
label 0

Determine whether this variant has abundance fitness no lower than -0.3: W54M
label 0

Determine whether this variant has abundance fitness no lower than -0.3: A28I
label 1

Decide: abundance fitness of R32N >= -0.3?
label 1

Evaluate R10H : abundance fitness at minimum -0.3?
label 1
